# STUDY_SYSTEM: T1, human IL-17A (human, UniProt Q16552 24-155)
# T1 construct: The immunogen was IL-17A protein, R&D Systems Cat #3012; also called Interleukin-17A; Hu IL-17
# T1 sequence (Q16552 24-155 limits assumed): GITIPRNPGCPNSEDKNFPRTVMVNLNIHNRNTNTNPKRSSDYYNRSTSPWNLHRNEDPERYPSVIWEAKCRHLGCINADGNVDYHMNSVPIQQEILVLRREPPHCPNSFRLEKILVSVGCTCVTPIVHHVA
# EXPERIMENT: ELISA, binding to human IL-17A
Kindly supply the reported pEC50 values for the records listed here.
Numbers only, as −log10 of the molar value.

Sample answers from the record:
BINDER	pEC50
23A4D8 (antibody, mouse IgG2a, V domains shown, also called Murine 23A4D8; parental) VH: EVQLQQSGPELVKPGASVKISCKASGFTFTDYYMNWMKQSHGKSLEWIGDINPKNGGTIFNQNFRGKATLTVDKSSSTAYMELRSLTSEDSAVYYCARSILTGPFYFDYWGQGTTLTVSS VL: DIVLTQSPASLAVSLGQRAIISCKASQSVSFAGTGLMHWYQQKSGQQPKLLISRASNLEAGVPTRFSGSGSRTDFTLNIHPVEEDDAATYYCQQTMEYPTFGGGTKLEIK	10.10
4H11C7 (antibody, mouse IgG1, V domains shown, amino acids 1-19 are stated as the leader; also called A1) VH: QVTLKESGPGILQPSQTLSLTCSFSGFSLNTFGMGVDWIRQPSGKGLEWLAHIWWDDDKYYNPALESRLTISKDASKNQVFLKIANVDTADTATYYCSRRELGPYFFDYWGQGTTLTVSS VL: GVLMTQTPLSLPVSLGDQASISCRSSQSIVHSNGNTYLEWYLQKPGQSPKLLIYKVSNRFSGVPDRFSGSGSGTDFTLKINRVEAEDLGVYYCFQGSHFPYTFGGGTKLEID	9.72
24F11E4 (antibody, mouse IgG1, V domains shown, amino acids 1-19 are stated as the leader; also called A5) VH: QVQLQQPGAELVMPGASVRLSCKASGYTFTNYWIHWVKQRPGQGLEWIGEIDPSDTFTNYSPKFKGKATLTVDKSSSTAYMQLTGLTSEDSAVYFCARSGIYYDYYEDYWGQGTTLTVSS VL: DVVMTQTPLSLPVSLGDQVSISCRSSQILLHSNGNTYLHWYLQKPGQSPKLLIYKVSNRFSGVPDRFSGSGSGTDFTLKISRVEADDLGVYFCSQSVHVPTFGGGTKLEIK	9.80
22E2G4 (antibody, mouse IgG1, V domains shown, amino acids 1-19 are stated as the leader; also called A3) VH: QVQLQQPGAELVMPGTSVRLSCKASGYTFTSYWMHWVKQRPGQGLEWIGEIDPSDTYTNYNPKFKGKATLTVDKSSSTAYMQFTSLTSEDSAVYYCARSGIYYDYYEDYWGQGTTLTVSS VL: DVVMTQTPLSLPVSLGDQASISCRSSQILLHSNGNTYLHWYLQKPGQSPKLLIYKVSNRFSGVPDRFSGSGSGTDFTLKISRVEAEDLGVYFCSQSVHVPTFGGGTKLEIK	9.82
8A5G4 (antibody, V domains shown, amino acids 1-19 are stated as the leader; also called A2) VH: QVELKESGPGLVAPSQSLSITCTVSGFSLTSYGVYWVRQPPGKGLEWLVVIWSDGTTTYNSALKSRLSISKDNSKSQVFLKMNSLQTDDTAMYYCARQGDNYSYAVDYWGQGTAVTVSS VL: DVVMIQIPLSLPVSLGDQASISCRSSQSLVHSNGNTYLHWYLQKPGQSPKLLIYKVFNRFSGVPDRFSGSGSGTDFTLKISRVEAEDLGVYFCSQSTHAPLTFGAGTKLELK	10.00

Switching to the query record.
// sample 26G11B11 (antibody, mouse IgG1, V domains shown, amino acids 1-19 are stated as the leader; also called A6) VH: QVQLQQPGAELVMPGASVKLSCKAAGYTFTSYWMHWVKQRPGQGLEWIGEIDPSDSYTNYNQKFKGKATLTVDKSSSTAYMQLSSLTSEDSAVYYCARSGIYYDYYEDYWGQGTTLTVSS VL: DVVMTQTPLSLPVSLGDQASISCRSSQSLVHSNGNTYLHWYLQKPGQSPKLLIYKVSNRFSGVPDRFSGSGSGTDFTLKISRVEAEDLGVYFCSQSIHVPTFGGGTKLEIK , its pEC50 was 9.92
